All values here come from the supplement of paper PMC10724198.

Test system: Saccharomyces cerevisiae;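 note: PSI is a weighted mean of sequencing reads over stability bins, variants kept only with over 10 reads, mCherry proximal and sfGFP distal, peptide attached via GGGS linker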
Assay: protein stability index of tFT-peptide fusion (C-terminal peptide) (PSI (0-1 scale)); higher = more stable (slower turnover)
Settings: genetic background: cdc34-1; temperature: 37 C
Classify as follows. Reported protein stability index greater than or equal to 0.5: Criterion met. Reported protein stability index below: Criterion not met.

The following sequences have reported results that may help.
seq | target.or.test.system | answer.label
DWCACFFILLLA | Saccharomyces cerevisiae | Criterion not met
LPLHPHRSRYLV | Saccharomyces cerevisiae | Criterion met
WGRFFWGCGVWV | Saccharomyces cerevisiae | Criterion met

// query Check this sequence for protein stability index at or above 0.5: "VVTFLCPLVGHV"
// result Criterion met

// query In plain terms: is recorded protein stability index at least 0.5 for "FCHFSSLVSVSL" ?
// result Criterion met

// query Please indicate if the recorded protein stability index for "KKKKNIKIKKQI" meets or exceeds 0.5.
// result Criterion met
